Data provenance is the supplement of paper PMC10567573.

B1: FAM107A (parent)
chain: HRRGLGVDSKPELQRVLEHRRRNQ

Variants of: B1
protocol details: protein stability index of a GFP-peptide fusion (GPS, HEK-293T) (PSI 1-6); higher = more stable;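 further: lentivirally expressed fusions sorted by FACS into six bins by GFP to DsRed ratio, PSI derived from sequencing read proportions per bin multiplied by bin number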
condition parameters: c terminus: a fixed tail appended
observable: protein stability index

// worked examples, protein stability index included
| input sequence | protein stability index |
| --- | --- |
| HRRGLGVDSKIELQRVLEHRRRNQ [P11I] | 3.42 |
| HRRGLGVDSKPELQRSLEHRRRNQ [V16S] | 4.01 |
| HRRGLGVDSKPELQRVLEHFRRNQ [R20F] | 2.69 |
| HRRGLGVDSKPELDRVLEHRRRNQ [Q14D] | 4.07 |

Now look at this entry.
Consider the variant shown here: HRRGLGVDSKCELQRVLEHRRRNQ [P11C] What is its recorded protein stability index?
4.13
